Molecular target: T1, BSA-conjugated Aβ heptapeptide VFFAEDC (C-terminal Cys coupled to NSMP-activated BSA);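 also: ELISA of antibody at 10 or 2 µg/ml binding plate-coated BSA–peptide conjugates, detected with HRP anti-human Ig and TMB colour, mock-treated BSA without peptide as negative control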
T1 construct: also called Peptide 18-23
T1 peptide: VFFAEDC
Experiment: ELISA
MEASURED PROPERTY: OD ratio 18-23/BSA

Below, each entry is followed by its recorded OD ratio 18-23/BSA result.
{"BINDER": "MS-Roche #7.2.H1 Fab (Fab, V domains shown) VH: QVQLVESGGGLVQPGGSLRLSCAASGFTFSSYAMSWVRQAPGKGLEWVSAINANGLKKYYADSVKGRFTISRDNSKNTLYLQMNSLRAEDTAVYYCARGKGNTHKPYGYVRYFDVWGQGTLVTVSS VL: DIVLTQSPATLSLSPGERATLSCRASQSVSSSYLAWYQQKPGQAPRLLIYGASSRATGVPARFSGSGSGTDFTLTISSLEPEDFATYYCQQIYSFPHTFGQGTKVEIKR", "MEASURED PROPERTY": "OD ratio 18-23/BSA", "VALUE": 11}
{"BINDER": "MS-Roche #7.9.H2 Fab (Fab, V domains shown, assembled) VH: QVQLVESGGGLVQPGGSLRLSCAASGFTFSSYAMSWVRQAPGKGLEWVSAINADGNRKYYADSVKGRFTISRDNSKNTLYLQMNSLRAEDTAVYYCARGKGNTHKPYGYVRYFDVWGQGTLVTVSS VL: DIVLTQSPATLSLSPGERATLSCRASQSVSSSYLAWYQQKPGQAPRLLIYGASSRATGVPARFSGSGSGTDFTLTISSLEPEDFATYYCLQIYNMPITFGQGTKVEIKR", "MEASURED PROPERTY": "OD ratio 18-23/BSA", "VALUE": 6}

For this binder ( MS-Roche #7.9.H1 Fab (Fab, V domains shown, assembled) VH: QVQLVESGGGLVQPGGSLRLSCAASGFTFSSYAMSWVRQAPGKGLEWVSAINANGQRKFYADSVKGRFTISRDNSKNTLYLQMNSLRAEDTAVYYCARGKGNTHKPYGYVRYFDVWGQGTLVTVSS VL: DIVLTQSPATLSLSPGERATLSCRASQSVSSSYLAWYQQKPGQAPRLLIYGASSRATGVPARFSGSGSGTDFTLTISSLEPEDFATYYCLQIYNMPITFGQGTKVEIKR ), measured OD ratio 18-23/BSA is 12
